The measurements presented in this section are drawn from patent US5817651A.

system: acetylcholine-induced abdominal constriction; experiment: acetylcholine-induced abdominal constriction test (ACH); type: in vivo; conditions: Mus musculus, Table 9, Examples; mice; no route marked in the cell; read-out: ACH ED50
Quantity kind: ED50 (mg/kg)

Molecule: COc1ccc(C(=O)c2c(C)n(CC3=CCCN(C)C3)c3ccccc23)cc1
Readout value: 11

Molecule: COc1ccc(C(=O)c2c(C)n(C[C@@H]3CC[C@@H](C)N3C)c3ccccc23)cc1 (relative stereo)
Readout value: 21

Molecule: CSc1ccc(C(=O)c2c(C)n(CC3CCCN(C)C3)c3ccccc23)cc1 (centres unmarked)
Readout value: 8

Molecule: COc1ccc(C(=O)c2c(C)n(C3CN(C)C3)c3ccccc23)cc1.O=C(O)/C=C\C(=O)O [Example 10A]
Readout value: 40

Molecule: COc1ccc(C(=O)c2c(C)n(C[C@@H]3CC[C@H](C)N3C)c3ccccc23)cc1 (relative stereo)
Readout value: 14

Molecule: COc1ccc(C(=O)c2c(C)n(CCC3CCCCN3C)c3ccccc23)cc1 (centres unmarked)
Readout value: 26

Molecule: Cc1c(C(=O)c2cccc(F)c2)c2ccccc2n1CC1CCCN(C)C1 (centres unmarked)
Readout value: 71

Molecule: CCN1CCCC(Cn2c(C)c(C(=O)c3ccc(OC)cc3)c3ccccc32)C1 (centres unmarked)
Readout value: 11

Molecule: COc1ccc(C(=O)c2c(C)n(CC3CN(C)CCN3C)c3ccccc23)cc1 (centres unmarked)
Readout value: 20

Molecule: COc1ccc(C(=O)c2c(C)n(CC3CCCN(C)C3)c3ccccc23)cc1 (centres unmarked)
Readout value: 8

Molecule: COc1ccc(C(=O)c2c(C)n(CC3COCCN3C)c3ccccc23)cc1 (centres unmarked) [Example 10B]
Readout value: 29

Molecule: CN1CCCC1Cn1cc(C(=O)c2ccccc2F)c2ccccc21 (centres unmarked)
Readout value: 53

Molecule: COc1ccc(C(=O)c2c(C)n(CC3CCN(C)CC3)c3ccccc23)cc1
Readout value: 4

Molecule: COc1ccc(C(=O)c2c(C)n(CC3CCCN(C)C3)c3ccc(F)cc23)cc1 (centres unmarked)
Readout value: 40

Molecule: COc1ccc(C(=O)c2c(C)n(CC3CCCN3C)c3ccccc23)cc1 (racemic) [Example 2E]
Readout value: 27

Molecule: COc1ccc(C(=O)c2cn(CC3CCCN3C)c3ccccc23)cc1 (centres unmarked)
Readout value: 11

Molecule: Cc1c(C(=O)c2ccccc2)c2ccccc2n1CC1CCCN(C)C1 (centres unmarked)
Readout value: 33

Molecule: COc1ccc(C(=O)c2c(C)n(CC3(O)CCN(C)CC3)c3ccccc23)cc1
Readout value: 23

Molecule: COc1ccc(C(=O)c2c(C)n(C3CCNC3)c3ccccc23)cc1 (centres unmarked)
Readout value: 29

Molecule: COc1ccc(C(=O)c2c(C(C)C)n(CC3CCCN(C)C3)c3ccccc23)cc1 (centres unmarked)
Readout value: 22

Molecule: CCN1CCCC1Cn1c(C)c(C(=O)c2ccc(OC)cc2)c2ccccc21 (centres unmarked)
Readout value: 43

Molecule: CCN1CCCC(n2c(C)c(C(=O)c3ccc(OC)cc3)c3ccccc32)C1 (centres unmarked)
Readout value: 26

Molecule: COc1ccc(C(=O)c2c(C)n(CC3CNCCN3)c3ccccc23)cc1 (centres unmarked)
Readout value: 22

Molecule: CC(C1CCCN(C)C1)n1cc(C(=O)c2ccccc2F)c2ccccc21 (centres unmarked)
Readout value: 24

Molecule: COc1ccc(C(=O)c2c(C)n(C(C)C3CCCN3C)c3ccccc23)cc1 (centres unmarked)
Readout value: 19

Molecule: Cc1c(C(=O)c2ccc([S+](C)[O-])cc2)c2ccccc2n1CC1CCCN(C)C1.Cl (centres unmarked)
Readout value: 9

Molecule: CC(C1CCCNC1)n1cc(C(=O)c2ccccc2F)c2ccccc21 (centres unmarked)
Readout value: 43

Molecule: COc1ccc(C(=O)c2c(C)n(C3CCCN(C)C3)c3ccccc23)cc1 (centres unmarked)
Readout value: 30

Molecule: COc1ccc(C(=O)c2c(C)n(CC3CCCNC3)c3ccccc23)cc1 (centres unmarked)
Readout value: 15

Molecule: COc1ccc(C(=O)c2c(C)n(CCC3CCCN3C)c3ccccc23)cc1 (centres unmarked)
Readout value: 32

Molecule: CCc1ccc(C(=O)c2c(C)n(CC3CCCN(C)C3)c3ccccc23)cc1 (centres unmarked)
Readout value: 46

Molecule: CN1CCCCC1Cn1cc(C(=O)c2ccccc2F)c2ccccc21 (centres unmarked)
Readout value: 10

Molecule: CCc1ccc(C(=O)c2c(C)n(CC3CCCN3C)c3ccccc23)cc1 (centres unmarked)
Readout value: 40

Molecule: CCCN1CCCC(Cn2c(C)c(C(=O)c3ccc(OC)cc3)c3ccccc32)C1 (centres unmarked)
Readout value: 18

Molecule: COc1ccc(C(=O)c2c(C)n(C3CCN(C)CC3)c3ccccc23)cc1
Readout value: 69

----------
tested on: acetylcholine-induced abdominal constriction; experiment: acetylcholine-induced abdominal constriction test (ACH); format: in vivo; conditions: Mus musculus, Table 9, Examples; mice; no route marked in the cell; read-out: ACH ED50
Where a name gives a salt, the structure may show the parent alone.

Molecule: Cc1c(C(=O)c2ccc(N)cc2)c2ccccc2n1CC1CCCN(C)C1 (centres unmarked) [Example 9, hydrochloride hemihydrate]
ED50 / mg/kg: 12

Molecule: COc1ccc(C(=O)c2cn(CCC3CCCN3C)c3ccccc23)cc1 (centres unmarked) [Example 2S]
ED50 / mg/kg: 50

Molecule: CSc1ccc(C(=O)c2c(C)n(CC3CCCN3C)c3ccccc23)cc1 (centres unmarked) [Example 1V]
ED50 / mg/kg: 25

Molecule: COc1ccc(C(=O)c2cn(CC3CCCCN3C)c3ccccc23)cc1 (centres unmarked) [Example 2J]
ED50 / mg/kg: 6

Molecule: CCc1c(C(=O)c2ccc(OC)cc2)c2ccccc2n1CC1CCCN(C)C1 (centres unmarked) [Example 2K]
ED50 / mg/kg: 16

Molecule: CN1CCCCC1Cn1cc(C(=O)c2cccc3ccccc23)c2ccccc21 (centres unmarked) [Example 2P]
ED50 / mg/kg: 9

Molecule: COc1ccc(C(=O)c2c(C)n(CCC3CCCN3C)c3ccc(F)cc23)cc1 (centres unmarked) [Example 2A, hydrochloride hemihydrate]
ED50 / mg/kg: 32

Molecule: COc1ccc(C(=O)c2c(C)n(CC3CCCN3)c3ccccc23)cc1.Cl (centres unmarked) [Example 8A]
ED50 / mg/kg: 41

----------
ACH percent inhibition at dose 30 overview
system: acetylcholine-induced abdominal constriction; assay: acetylcholine-induced abdominal constriction test (ACH); type: in vivo; settings: Table 9; mice; dose level 30

Compound: CN1CCOCC1Cn1cc(C(=O)c2cccc3ccccc23)c2ccccc21.Cl (stereo not shown) [Example 10C]
ACH percent inhibition at dose 30 (%): 50

Compound: O=C(c1cccc2ccccc12)c1cn(CC2COCCN2)c2ccccc12 (stereo not shown)
ACH percent inhibition at dose 30 (%): 100

Compound: O=C(c1cccc2ccccc12)c1cn(CC2CCCCN2)c2ccccc12 (stereo not shown)
ACH percent inhibition at dose 30 (%): 30

Compound: CN1CCCC(n2cc(C(=O)c3ccccc3F)c3ccccc32)C1 (stereo not shown)
ACH percent inhibition at dose 30 (%): 50

----------
ED50 overview
tested on: acetylcholine-induced abdominal constriction; test: acetylcholine-induced abdominal constriction test (ACH); assay type: in vivo; details: Mus musculus, Table 9, Examples; mice; no route marked in the cell; read-out: ACH ED50

Molecule: Cc1c(C(=O)c2ccc(Cl)cc2)c2ccccc2n1CC1CCCN(C)C1 (stereo not drawn)
Measured on: acetylcholine-induced abdominal constriction
ED50: 62 mg/kg

Molecule: Cc1c(C(=O)c2cccc3ccccc23)c2ccccc2n1CC1CCCCN1C (stereo not drawn)
Measured on: acetylcholine-induced abdominal constriction
ED50: 22 mg/kg

Molecule: COc1ccc(C(=O)c2cn(CC3CCCN(C)C3)c3ccccc23)cc1 (stereo not drawn)
Measured on: acetylcholine-induced abdominal constriction
ED50: 91 mg/kg

Molecule: COc1ccc(C(=O)c2c(C)n(C3CCCCN(C)C3)c3ccccc23)cc1 (stereo not drawn)
Measured on: acetylcholine-induced abdominal constriction
ED50: 29 mg/kg

Molecule: Cc1c(C(=O)c2ccccc2F)c2ccccc2n1CC1CCCN1C (stereo not drawn)
Measured on: acetylcholine-induced abdominal constriction
ED50: 72 mg/kg

Molecule: CN1CCCC(Cn2cc(C(=O)c3ccccc3F)c3ccccc32)C1 (stereo not drawn)
Measured on: acetylcholine-induced abdominal constriction
ED50: 65 mg/kg

Molecule: COc1ccc(C(=O)c2c(C)n(CC3CN(C)CCS3)c3ccccc23)cc1 (stereo not drawn)
Measured on: acetylcholine-induced abdominal constriction
ED50: 30 mg/kg

Molecule: COc1ccc(C(=O)c2c(C)n(CC3CN(C)CCO3)c3ccccc23)cc1 (stereo not drawn)
Measured on: acetylcholine-induced abdominal constriction
ED50: 9 mg/kg

Molecule: COc1ccc(C(=O)c2cn(CCC3CCCN3C)c3ccc(F)cc23)cc1 (stereo not drawn)
Measured on: acetylcholine-induced abdominal constriction
ED50: 49 mg/kg
